The following compounds have recorded pIC50 on Factor IXa (Homo sapiens, UniProt P00740).
Sequence (P00740 227-461 limits assumed): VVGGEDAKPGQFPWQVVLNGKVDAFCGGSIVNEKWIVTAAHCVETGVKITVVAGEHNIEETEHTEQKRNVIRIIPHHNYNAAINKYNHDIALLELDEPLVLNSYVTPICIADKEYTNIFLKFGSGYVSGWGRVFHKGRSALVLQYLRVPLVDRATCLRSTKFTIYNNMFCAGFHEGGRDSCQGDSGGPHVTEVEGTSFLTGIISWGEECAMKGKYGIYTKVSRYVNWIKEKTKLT
Sequence (P00740 47-191 partner limits assumed): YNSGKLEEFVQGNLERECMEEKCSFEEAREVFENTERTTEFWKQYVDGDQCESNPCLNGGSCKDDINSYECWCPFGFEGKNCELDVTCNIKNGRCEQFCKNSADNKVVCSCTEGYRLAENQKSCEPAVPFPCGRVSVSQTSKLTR
pIC50: −log10 of the molar value.
Readout: pIC50

Here are 8 compounds together with their reported answers.
{"Smiles notation": "Cc1noc(C)c1-c1cccc(N2CCO[C@](C)([C@@H](O)C(=O)Nc3ccc4c(N)noc4c3)C2=O)n1", "Subject of test": "Factor IXa (Homo sapiens, UniProt P00740)", "pIC50": 7.03}
{"Smiles notation": "COc1cc(-n2ccc(N3CC(C)(C)O[C@H]([C@@H](O)C(=O)Nc4ccc5c(N)noc5c4)C3=O)n2)cnn1", "Subject of test": "Factor IXa (Homo sapiens, UniProt P00740)", "pIC50": 8.56}
{"Smiles notation": "C[C@](O)(C(=O)Nc1ccc2c(N)noc2c1)[C@H]1OCCN(c2ccn(-c3ccnc(C#N)n3)n2)C1=O", "Subject of test": "Factor IXa (Homo sapiens, UniProt P00740)", "pIC50": 6.84}
{"Smiles notation": "C[C@](O)(C(=O)Nc1ccc2c(N)noc2c1)[C@H]1OCCN(c2cccc(-c3ccnnc3)n2)C1=O", "Subject of test": "Factor IXa (Homo sapiens, UniProt P00740)", "pIC50": 7.17}
{"Smiles notation": "COc1nccc(-n2ccc(N3CCO[C@H]([C@@](C)(O)C(=O)Nc4cc(F)c5c(N)noc5c4)C3=O)n2)n1", "Subject of test": "Factor IXa (Homo sapiens, UniProt P00740)", "pIC50": 6.97}
{"Smiles notation": "C[C@]1([C@@H](O)C(=O)Nc2cc(Cl)c3c(N)noc3c2)OCCN(c2ccn(-c3ccc(S(C)(=O)=O)cc3)n2)C1=O", "Subject of test": "Factor IXa (Homo sapiens, UniProt P00740)", "pIC50": 6.13}
{"Smiles notation": "C[C@]1([C@@H](O)C(=O)Nc2ccc(CN)cc2)OCCN(c2ccn(-c3ccncc3)n2)C1=O", "Subject of test": "Factor IXa (Homo sapiens, UniProt P00740)", "pIC50": 8.01}
{"Smiles notation": "Cc1cc(-n2ccc(N3CCO[C@H]([C@@](C)(O)C(=O)Nc4ccc5c(N)noc5c4)C3=O)n2)ccn1", "Subject of test": "Factor IXa (Homo sapiens, UniProt P00740)", "pIC50": 7.14}

(P) C[C@](O)(C(=O)Nc1ccc2c(N)noc2c1)[C@H]1OCCN(c2ccn(-c3ccnc(C(F)(F)F)n3)n2)C1=O
(Q) C[C@](O)(C(=O)Nc1ccc2c(N)noc2c1)[C@H]1OCCN(c2ccn(-c3ccc(S(C)(=O)=O)cc3)n2)C1=O
(R) C[C@H]1CN(c2ccn(-c3ccnnc3)n2)C(=O)[C@@H]([C@@H](O)C(=O)Nc2ccc3c(N)noc3c2)O1
(S) CC(C)Oc1cc(-n2ccc(N3CCO[C@H]([C@@](C)(O)C(=O)Nc4ccc5c(N)noc5c4)C3=O)n2)ccn1
Arrange the 4 compounds from largest to smallest pIC50. Give the labels in the order requested.
R, Q, P, S
(R: 8.64, Q: 7.88, P: 7.12, S: 6.41)
